- tgt: T1, murine PCSK-9 (murine, UniProt Q80W65 35-694)
- T1 construct: also called mouse PCSK9
- protocol_notes: MSD-SET, Fab with biotin-PCSK9 in solution, IgG on plate, pH 7.4
Measured pKd, listed per entry for reference.
In textbook form, pKd equals minus log to base ten of the concentration in mol/L.

INSERT INTO assay_data (binder, parameter_measured, experimental_result) VALUES
  ('ADI-10090 Fab (Fab, V domains shown) VH: QLQLQESGPGLVKPSETLSLTCTVSGGSIWSSSYYWTWIRQPPGKGLEWIGSINYRGSTYYNPSLKSRVTISVDTSKNQFSLKLSSVTAADTAVYYCARENSGVVPAAGPNWFDPWGQGTLVTVSS VL: EIVLTQSPATLSLSPGERATLSCRASQSVSSYLAWYQQKPGQAPRLLIYDASNRATGIPARFSGSGSGTDFTLTISSLEPEDFAVYYCQQRRNWFTFGGGTKVEIKR', 'pKd', 9.92),
  ('ADI-09111 Fab (Fab, V domains shown) VH: QLQLQESGPGLVKPSETLSLTCTVSGGSISSSSYYWGWIRQPPGKGLEWIGSIYYSGSTYYNPSLKSRVTISVDTSKNQFSLKLSSVTAADTAVYYCARENSGVVPAAGPNWFDPWGQGTLVTVSS VL: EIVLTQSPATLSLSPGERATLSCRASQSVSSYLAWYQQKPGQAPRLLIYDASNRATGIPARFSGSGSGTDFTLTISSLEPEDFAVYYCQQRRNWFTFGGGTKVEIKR', 'pKd', 8.46);

// below: pKd requested for another binder
Incoming: Tell me measured pKd for ADI-10088 Fab (Fab, V domains shown) VH: QLQLQESGPGLVKPSETLSLTCTVSGGSIGSSSYYWAWIRQPPGKGLEWIGSINYRGSTYYNPSLKSRVTISVDTSKNQFSLKLSSVTAADTAVYYCARENSGVVPAAGPNWFDPWGQGTLVTVSS VL: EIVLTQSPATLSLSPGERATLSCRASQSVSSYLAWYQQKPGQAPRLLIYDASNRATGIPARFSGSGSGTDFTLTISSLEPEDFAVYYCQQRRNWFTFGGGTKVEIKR please.
Outgoing: 10.06

Ref: patent US20200087416A1
